tested on: RAW 264.7 cells; assay: Quantitative cell-permeability of FITC-labeled aMTD- or rPeptide-fused CRA recombinant proteins (flow cytometry); type: cell-based; details: cell-permeability of aMTD-fused CRA recombinant protein relative to reference CPP (C: MTD85)
experimental.readout: Relative Ratio (Fold) C
Write down the numeric answer in Fold and omit the unit.

Example entries and their recorded answers appear below.
In [3]: df
Out[3]:
                                  substance  units_text  numeric_value
0  810 (VIVLAAPALAAP; Amino acid Sequence of aMTD810) [compound 810]        Fold           40.6
1  145 (LLAVVPAVALAP; Amino acid Sequence of aMTD145) [compound 145]        Fold            3.2
2  1 (AAALAPVVLALP; Amino acid Sequence of aMTD1) [compound 1]        Fold            6.0

*Q* I am curious: what Relative Ratio (Fold) C value has been reported for 522 (ALLVIAVPAVAP; Amino acid Sequence of aMTD522) [compound 522] ?
*A* 7.7

*Q* I am curious: what Relative Ratio (Fold) C value has been reported for 727 (VALAIALPAVLP; Amino acid Sequence of aMTD727) [compound 727] ?
*A* 18.5

*Q* I am curious: what Relative Ratio (Fold) C value has been reported for 724 (VAVLAVLPALAP; Amino acid Sequence of aMTD724) [compound 724] ?
*A* 16.1

*Q* I am curious: what Relative Ratio (Fold) C value has been reported for 849 (AVILLAPLIAAP; Amino acid Sequence of aMTD849) [compound 849] ?
*A* 2.9

*Q* I am curious: what Relative Ratio (Fold) C value has been reported for 603 (VLVALAAPVIAP; Amino acid Sequence of aMTD603) [compound 603] ?
*A* 18.2

*Q* I am curious: what Relative Ratio (Fold) C value has been reported for 383 (VIVALAPALLAP; Amino acid Sequence of aMTD383) [compound 383] ?
*A* 3.9

###

tested on: RAW 264.7 cells; assay: Quantitative cell-permeability of FITC-labeled aMTD- or rPeptide-fused CRA recombinant proteins (flow cytometry); assay type: cell-based; details: cell-permeability of aMTD-fused CRA recombinant protein relative to reference CPP (C: MTD85)
experimental.readout: Relative Ratio (Fold) C
Write down the numeric answer in Fold and omit the unit.

>>> df
                                  substance  numeric_value
0  888 (ILAVVAIPAAAP; Amino acid Sequence of aMTD888) [compound 888]           24.0
1  743 (AIAIALVPVALP; Amino acid Sequence of aMTD743) [compound 743]            2.5
2  895 (AIIIVVPAIAAP; Amino acid Sequence of aMTD895) [compound 895]           20.6
3  382 (AAALVIPAILAP; Amino acid Sequence of aMTD382) [compound 382]            6.0
4  282 (VLAVAPALIVAP; Amino acid Sequence of aMTD282) [compound 282]            4.0

*Q* I am curious: what Relative Ratio (Fold) C value has been reported for 848 (AVAIVVLPAVAP; Amino acid Sequence of aMTD848) [compound 848] ?
*A* 3.4

*Q* I am curious: what Relative Ratio (Fold) C value has been reported for 444 (LAAALVPVALVP; Amino acid Sequence of aMTD444) [compound 444] ?
*A* 2.7

*Q* I am curious: what Relative Ratio (Fold) C value has been reported for 507 (VAIALAPVVVAP; Amino acid Sequence of aMTD907) [compound 507] ?
*A* 2.8

*Q* I am curious: what Relative Ratio (Fold) C value has been reported for 878 (IVALVAPAAVVP; Amino acid Sequence of aMTD878) [compound 878] ?
*A* 3.5

*Q* I am curious: what Relative Ratio (Fold) C value has been reported for 565 (VAIVLVAPAVAP; Amino acid Sequence of aMTD565) [compound 565] ?
*A* 2.5

*Q* I am curious: what Relative Ratio (Fold) C value has been reported for 902 (ALVAPLLAVAVP; Amino acid Sequence of aMTD902) [compound 902] ?
*A* 2.6

*Q* I am curious: what Relative Ratio (Fold) C value has been reported for 897 (AVIVPVAIIAAP; Amino acid Sequence of aMTD897) [compound 897] ?
*A* 3.8

*Q* I am curious: what Relative Ratio (Fold) C value has been reported for 852 (VLAVAAPAVLLP; Amino acid Sequence of aMTD852) [compound 852] ?
*A* 28.6

*Q* I am curious: what Relative Ratio (Fold) C value has been reported for 868 (VLVAAILPAAIP; Amino acid Sequence of aMTD868) [compound 868] ?
*A* 5.0

*Q* I am curious: what Relative Ratio (Fold) C value has been reported for 461 (IAAVIVPAVALP; Amino acid Sequence of aMTD461) [compound 461] ?
*A* 6.4

###

// values below are reported Relative Ratio (Fold) B
system: RAW 264.7 cells; assay: Quantitative cell-permeability of FITC-labeled aMTD- or rPeptide-fused CRA recombinant proteins (flow cytometry); format: cell-based; details: cell-permeability of aMTD-fused CRA recombinant protein relative to reference CPP (B: MTM12)
Write down the numeric answer in Fold and omit the unit.

In [3]: df
Out[3]:
                                  substance     experimental_readout  units_text  numeric_value
0  324 (IVAVALPAALVP; Amino acid Sequence of aMTD324) [compound 324]  Relative Ratio (Fold) B        Fold            6.9
1  847 (LVAIVVLPAVAP; Amino acid Sequence of aMTD847) [compound 847]  Relative Ratio (Fold) B        Fold           33.4
2  245 (AAALAPVLALVP; Amino acid Sequence of aMTD245) [compound 245]  Relative Ratio (Fold) B        Fold            5.0

Now, please, on to the next substance.
*Q* I am curious: what Relative Ratio (Fold) B value has been reported for 724 (VAVLAVLPALAP; Amino acid Sequence of aMTD724) [compound 724] ?
*A* 31.8

###

tested on: RAW 264.7 cells; experiment: Quantitative cell-permeability of FITC-labeled aMTD- or rPeptide-fused CRA recombinant proteins (flow cytometry); type: cell-based; settings: cell-permeability of aMTD-fused CRA recombinant protein relative to reference CPP (C: MTD85)
experimental.readout: Relative Ratio (Fold) C
Write down the numeric answer in Fold and omit the unit.

Example entries and their recorded answers appear below.
>>> df
                                  substance  numeric_value
0  405 (LAAAVIPVAILP; Amino acid Sequence of aMTD405) [compound 405]            7.5
1  811 (AVVLAVPALAVP; Amino acid Sequence of aMTD811) [compound 811]           15.7
2  3 (AALLVPAAVLAP; Amino acid Sequence of aMTD3) [compound 3]            9.1

Now, please, on to the next substance.
*Q* I am curious: what Relative Ratio (Fold) C value has been reported for 442 (ALAALVPAVLVP; Amino acid Sequence of aMTD442) [compound 442] ?
*A* 6.9

###

// values below are reported Relative Ratio (Fold) B
test system: RAW 264.7 cells; assay: Quantitative cell-permeability of FITC-labeled aMTD- or rPeptide-fused CRA recombinant proteins (flow cytometry); type: cell-based; settings: cell-permeability of aMTD-fused CRA recombinant protein relative to reference CPP (B: MTM12)
Write down the numeric answer in Fold and omit the unit.

Example entries and their recorded answers appear below.
In [3]: df
Out[3]:
                                  substance  numeric_value
0  443 (ALAALVPVALVP; Amino acid Sequence of aMTD443) [compound 443]            5.3
1  285 (AIVLLPAAVVAP; Amino acid Sequence of aMTD285) [compound 285]            9.9
2  911 (VALALPAVVVAP; Amino acid Sequence of aMTD911) [compound 911]           56.8
3  885 (LVAIAPAVAVLP; Amino acid Sequence of aMTD885) [compound 885]           19.0

*Q* I am curious: what Relative Ratio (Fold) B value has been reported for 744 (AAVVIVAPVALP; Amino acid Sequence of aMTD744) [compound 744] ?
*A* 7.3

*Q* I am curious: what Relative Ratio (Fold) B value has been reported for 870 (VLVAAVLPIAAP; Amino acid Sequence of aMTD870) [compound 870] ?
*A* 11.1

*Q* I am curious: what Relative Ratio (Fold) B value has been reported for 382 (AAALVIPAILAP; Amino acid Sequence of aMTD382) [compound 382] ?
*A* 11.8

Origin of the recorded values: patent US10385103B2
